# SYSTEM_TESTED: ΔF508 mutant CFTR (Homo sapiens, UniProt P13569, DEL508-508)
# Construct: expressed in transfected cells; host or cells: Fischer rat thyroid (FRT) cells
# Sequence (P13569 with tags, fused parts or gaps DEL508-508): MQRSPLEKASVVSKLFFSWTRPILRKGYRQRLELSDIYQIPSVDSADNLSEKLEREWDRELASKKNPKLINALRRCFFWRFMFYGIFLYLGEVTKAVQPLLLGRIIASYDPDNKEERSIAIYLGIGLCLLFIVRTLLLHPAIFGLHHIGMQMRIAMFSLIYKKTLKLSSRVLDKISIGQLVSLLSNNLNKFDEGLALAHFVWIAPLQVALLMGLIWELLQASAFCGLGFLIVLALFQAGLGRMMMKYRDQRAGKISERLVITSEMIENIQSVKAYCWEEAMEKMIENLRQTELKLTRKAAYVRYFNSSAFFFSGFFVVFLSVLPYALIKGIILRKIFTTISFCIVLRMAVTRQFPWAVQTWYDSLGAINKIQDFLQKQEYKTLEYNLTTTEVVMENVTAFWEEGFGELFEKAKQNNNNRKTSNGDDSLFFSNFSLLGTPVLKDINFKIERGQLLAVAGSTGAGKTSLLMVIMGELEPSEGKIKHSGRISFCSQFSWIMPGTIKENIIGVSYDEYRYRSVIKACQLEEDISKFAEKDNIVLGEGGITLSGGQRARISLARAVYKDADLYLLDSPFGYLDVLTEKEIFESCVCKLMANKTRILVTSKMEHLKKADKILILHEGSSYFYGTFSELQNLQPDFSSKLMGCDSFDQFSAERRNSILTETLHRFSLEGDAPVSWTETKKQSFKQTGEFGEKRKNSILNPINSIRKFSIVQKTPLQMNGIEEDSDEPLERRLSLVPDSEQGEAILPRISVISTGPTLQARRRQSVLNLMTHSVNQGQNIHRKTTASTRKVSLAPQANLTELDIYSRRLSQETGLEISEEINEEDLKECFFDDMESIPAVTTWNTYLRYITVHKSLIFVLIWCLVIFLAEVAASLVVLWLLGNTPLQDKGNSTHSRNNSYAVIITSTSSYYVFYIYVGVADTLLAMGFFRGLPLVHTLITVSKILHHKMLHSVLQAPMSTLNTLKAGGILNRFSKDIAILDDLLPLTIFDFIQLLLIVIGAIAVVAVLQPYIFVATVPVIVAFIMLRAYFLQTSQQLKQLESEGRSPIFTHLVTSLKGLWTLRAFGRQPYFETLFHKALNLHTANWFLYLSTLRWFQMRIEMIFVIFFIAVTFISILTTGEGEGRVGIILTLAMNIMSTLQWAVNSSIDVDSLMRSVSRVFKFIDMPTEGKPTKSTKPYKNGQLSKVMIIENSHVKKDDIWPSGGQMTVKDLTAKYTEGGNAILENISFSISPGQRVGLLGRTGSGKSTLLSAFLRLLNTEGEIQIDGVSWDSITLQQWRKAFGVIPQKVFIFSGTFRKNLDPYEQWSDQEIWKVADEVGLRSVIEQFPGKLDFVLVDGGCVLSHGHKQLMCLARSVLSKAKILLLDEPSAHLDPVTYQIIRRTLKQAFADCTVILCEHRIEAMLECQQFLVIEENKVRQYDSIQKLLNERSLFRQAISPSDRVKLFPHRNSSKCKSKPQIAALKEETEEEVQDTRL
# TEST_SUMMARY: Fluorescence Assay (halide-sensitive YFP, iodide influx) for ΔF508 mutant CFTR activity
# Type: cell-based
# CONDITION_NOTES: FRT cells expressing ΔF508-CFTR and YFP-H148Q/I152L, incubated 27° C. 20-24 h; forskolin (20 μM) and test compounds (20 μM) for 20 min; rate of fluorescence quenching by I−, normalized to forskolin alone
# Excerpt: The ΔF508 mutant CFTR activities of the CFTR modulators are detected using the Fluorescence Assay developed by Pedemonte (Pedemonte N., et al., Antihypertensive 1,4-dihydropyridines as correctors of the cystic fibrosis transmembrane conductance regulator channel gating defect caused by cystic fibrosis mutations, Mol. Pharmacol., 2005, 68, 1736-1746). Fischer rat thyroid (FRT) cells, stably transfected with ΔF508 were retransfected with the YFP-H148Q/I152L fluorescent protein. […]
OBSERVATION_TYPE: CFTR Activity

{"COMPOUND": "Cl.NCC(CCl)Oc1sncc1NC(=O)c1nc(-c2c(F)cccc2F)c(F)cc1N (centres unmarked)", "OBSERVATION_TYPE": "CFTR Activity", "VAL": 1.6}
{"COMPOUND": "Cl.Nc1cc(F)c(-c2ccccc2)nc1C(=O)Nc1cnsc1OC1CCNC1 (centres unmarked)", "OBSERVATION_TYPE": "CFTR Activity", "VAL": 1.3}
{"COMPOUND": "CC(C)(O)CCCOc1sncc1NC(=O)c1ccc(F)c(-c2c(F)cccc2F)n1", "OBSERVATION_TYPE": "CFTR Activity", "VAL": 0.1}
{"COMPOUND": "O=C(Nc1cnsc1OCCCO)c1ccc(F)c(-c2c(F)cccc2F)n1", "OBSERVATION_TYPE": "CFTR Activity", "VAL": 0.1}
{"COMPOUND": "Cl.NCC(CO)COc1sncc1NC(=O)c1nc(-c2c(F)cccc2F)c(C(F)(F)F)cc1N (centres unmarked)", "OBSERVATION_TYPE": "CFTR Activity", "VAL": 2.3}

P. Cl.O=C(Nc1cnsc1OC1CCNCC1)c1ccc(C(F)(F)F)c(-c2c(F)cccc2F)n1
Q. Cl.O=C(Nc1cnsc1OCC1CNC1)c1ccc(C(F)(F)F)c(-c2c(F)cccc2F)n1
R. Cl.O=C(Nc1cnsc1OC1CNC1)c1ccc(F)c(-c2c(F)cccc2F)n1
Problem: Task for the reader: rank each entry by its CFTR Activity, from the minimum upward. # the answer lists labels in the order requested
Result: R, Q, P

###

# SYSTEM_TESTED: ΔF508 mutant CFTR (Homo sapiens, UniProt P13569, DEL508-508)
# Construct: expressed in transfected cells; host or cells: Fischer rat thyroid (FRT) cells
# TEST_SUMMARY: Fluorescence Assay (halide-sensitive YFP, iodide influx) for ΔF508 mutant CFTR activity
# Assay type: cell-based
# CONDITION_NOTES: FRT cells expressing ΔF508-CFTR and YFP-H148Q/I152L, incubated 27° C. 20-24 h; forskolin (20 μM) and test compounds (20 μM) for 20 min; rate of fluorescence quenching by I−, normalized to forskolin alone
OBSERVATION_TYPE: CFTR Activity

{"COMPOUND": "Cl.Nc1cc(C(F)(F)F)c(-c2ccccc2)nc1C(=O)Nc1cnsc1OC1CCNC1 (centres unmarked)", "SYSTEM_TESTED": "ΔF508 mutant CFTR (Homo sapiens, UniProt P13569, DEL508-508)", "OBSERVATION_TYPE": "CFTR Activity", "VAL": 0.4}
{"COMPOUND": "Cl.N[C@H]1CC[C@H](Oc2sncc2NC(=O)c2ccc(F)c(-c3c(F)cccc3F)n2)CC1", "SYSTEM_TESTED": "ΔF508 mutant CFTR (Homo sapiens, UniProt P13569, DEL508-508)", "OBSERVATION_TYPE": "CFTR Activity", "VAL": 1}

A. Cl.NCC(CCl)COc1sncc1NC(=O)c1nc(-c2c(F)cccc2F)c(C(F)(F)F)cc1N (centres unmarked)
B. Cl.Nc1cc(F)c(-c2c(F)cccc2F)nc1C(=O)Nc1cnsc1OC1CNC1
Problem: Smaller CFTR Activity value, A vs B ? Give the label under which the chosen entry appears.
Result: B

A. Cl.O=C(Nc1cnsc1OCC1CNC1)c1ccc(F)c(-c2c(F)cccc2F)n1
B. Cl.Nc1cc(F)c(-c2c(F)cccc2F)nc1C(=O)Nc1cnsc1OC1CCCNCC1 (centres unmarked)
C. Cl.O=C(Nc1cnsc1OC1CCCNCC1)c1nc(-c2c(F)cccc2F)ccc1F (centres unmarked)
D. Cl.Nc1cc(C(F)(F)F)c(-c2c(F)cccc2F)nc1C(=O)Nc1cnsc1OC1CCCC(N)C1 (centres unmarked)
Problem: List the 4 entries from lowest CFTR Activity to highest CFTR Activity value. Write the labels in rank order as requested.
Result: A, D, C, B

###

# SYSTEM_TESTED: ΔF508 mutant CFTR (Homo sapiens, UniProt P13569, DEL508-508)
# Construct: expressed in transfected cells; host or cells: Fischer rat thyroid (FRT) cells
# TEST_SUMMARY: Fluorescence Assay (halide-sensitive YFP, iodide influx) for ΔF508 mutant CFTR activity
# Assay type: cell-based
# CONDITION_NOTES: FRT cells expressing ΔF508-CFTR and YFP-H148Q/I152L, incubated 27° C. 20-24 h; forskolin (20 μM) and test compounds (20 μM) for 20 min; rate of fluorescence quenching by I−, normalized to forskolin alone
OBSERVATION_TYPE: CFTR Activity

Recorded results for 5 compounds are shown here.
{"COMPOUND": "Cl.Nc1cc(F)c(-c2c(F)cccc2F)nc1C(=O)Nc1cnsc1OC1CCNC1 (stereo not shown)", "OBSERVATION_TYPE": "CFTR Activity", "VAL": 1.9}
{"COMPOUND": "O=C(Nc1cnsc1OCCC(O)CO)c1ccc(F)c(-c2c(F)cccc2F)n1 (stereo not shown)", "OBSERVATION_TYPE": "CFTR Activity", "VAL": 0.5}
{"COMPOUND": "Cl.Nc1cc(F)c(-c2c(F)cccc2F)nc1C(=O)Nc1cnsc1OCC1CNC1", "OBSERVATION_TYPE": "CFTR Activity", "VAL": 0.3}
{"COMPOUND": "Cl.NCC(CO)COc1sncc1NC(=O)c1nc(-c2c(F)cccc2F)c(F)cc1N (stereo not shown)", "OBSERVATION_TYPE": "CFTR Activity", "VAL": 1.8}
{"COMPOUND": "Cl.NCCCCOc1sncc1NC(=O)c1nc(-c2c(F)cccc2F)c(F)cc1N", "OBSERVATION_TYPE": "CFTR Activity", "VAL": 1.8}

a. Cl.O=C(Nc1cnsc1OCC1CCCNC1)c1ccc(F)c(-c2c(F)cccc2F)n1 (stereo not shown)
b. Cl.Nc1cc(F)c(-c2c(F)cccc2F)nc1C(=O)Nc1cnsc1O[C@H]1CC[C@H](N)CC1
c. Cl.Nc1cc(F)c(-c2c(F)cccc2F)nc1C(=O)Nc1cnsc1OCC1CCNC1 (stereo not shown)
d. Cl.NC1CCCC(Oc2sncc2NC(=O)c2ccc(C(F)(F)F)c(-c3c(F)cccc3F)n2)C1 (stereo not shown)
e. Cl.NCC(CO)COc1sncc1NC(=O)c1ccc(F)c(-c2c(F)cccc2F)n1 (stereo not shown)
Problem: Hey, can you sort those compounds up there by CFTR Activity, smallest first? // format: requested-order list of labels
Result: d, e, a, c, b
(d: 0.1, e: 0.5, a: 0.9, c: 1.7, b: 2.8)

###

# SYSTEM_TESTED: ΔF508 mutant CFTR (Homo sapiens, UniProt P13569, DEL508-508)
# Construct: expressed in transfected cells; host or cells: Fischer rat thyroid (FRT) cells
# TEST_SUMMARY: Fluorescence Assay (halide-sensitive YFP, iodide influx) for ΔF508 mutant CFTR activity
# Assay type: cell-based
# CONDITION_NOTES: FRT cells expressing ΔF508-CFTR and YFP-H148Q/I152L, incubated 27° C. 20-24 h; forskolin (20 μM) and test compounds (20 μM) for 20 min; rate of fluorescence quenching by I−, normalized to forskolin alone
# From the text: The ΔF508 mutant CFTR activities of the CFTR modulators are detected using the Fluorescence Assay developed by Pedemonte (Pedemonte N., et al., Antihypertensive 1,4-dihydropyridines as correctors of the cystic fibrosis transmembrane conductance regulator channel gating defect caused by cystic fibrosis mutations, Mol. Pharmacol., 2005, 68, 1736-1746). Fischer rat thyroid (FRT) cells, stably transfected with ΔF508 were retransfected with the YFP-H148Q/I152L fluorescent protein. […]
OBSERVATION_TYPE: CFTR Activity

Example entries and their recorded answers appear below.
{"COMPOUND": "Cl.NCC(CO)COc1sncc1NC(=O)c1ccc(C(F)(F)F)c(-c2c(F)cccc2F)n1 (centres unmarked)", "SYSTEM_TESTED": "ΔF508 mutant CFTR (Homo sapiens, UniProt P13569, DEL508-508)", "CFTR Activity": 2}
{"COMPOUND": "Cl.O=C(Nc1cnsc1OC1CCNCC1)c1ccc(F)c(-c2ccncc2)n1", "SYSTEM_TESTED": "ΔF508 mutant CFTR (Homo sapiens, UniProt P13569, DEL508-508)", "CFTR Activity": 0.3}
{"COMPOUND": "Cl.Nc1cc(C(F)(F)F)c(-c2c(F)cccc2F)nc1C(=O)Nc1cnsc1O[C@H]1CC[C@H](N)CC1", "SYSTEM_TESTED": "ΔF508 mutant CFTR (Homo sapiens, UniProt P13569, DEL508-508)", "CFTR Activity": 4.6}
{"COMPOUND": "Cl.O=C(Nc1cnsc1OC1CCCNCC1)c1ccc(C(F)(F)F)c(-c2c(F)cccc2F)n1 (centres unmarked)", "SYSTEM_TESTED": "ΔF508 mutant CFTR (Homo sapiens, UniProt P13569, DEL508-508)", "CFTR Activity": 0.4}
{"COMPOUND": "Cl.NCC(CCl)COc1sncc1NC(=O)c1ccc(F)c(-c2c(F)cccc2F)n1 (centres unmarked)", "SYSTEM_TESTED": "ΔF508 mutant CFTR (Homo sapiens, UniProt P13569, DEL508-508)", "CFTR Activity": 1.4}

I. Cl.Nc1cc(C(F)(F)F)c(-c2c(F)cccc2F)nc1C(=O)Nc1cnsc1OCC1CNC1
II. Cl.O=C(Nc1cnsc1OCC1CCNCC1)c1ccc(F)c(-c2c(F)cccc2F)n1
Problem: Of I and II , whose reported CFTR Activity is numerically smaller? Answer with the label corresponding to your selection.
Result: I

a. Cl.O=C(Nc1cnsc1OCC1CCNCC1)c1ccc(C(F)(F)F)c(-c2c(F)cccc2F)n1
b. Cl.Nc1cc(C(F)(F)F)c(-c2c(F)cccc2F)nc1C(=O)Nc1cnsc1OC1CCCNCC1 (centres unmarked)
c. Cl.NCC(CCl)COc1sncc1NC(=O)c1nc(-c2c(F)cccc2F)c(F)cc1N (centres unmarked)
Problem: Order field: CFTR Activity | Direction: descending (largest first) Show the ranking through the labels, in the order asked for.
Result: c, b, a
(c: 1.6, b: 0.7, a: 0.3)
